- Test system: BGC-823
- method description: Cytotoxicity against human BGC823 cells after 72 hrs by CCK8 assay
- Type: functional, cell-based
- applied conditions: BGC-823, 72 h
Measured IC50 accompanies every entry in the list below.
Form entry: value (µM) — number only.

>  <compound>
CC(=O)O[C@H]1C(=O)[C@@]2(C)[C@H]([C@H](OC(=O)c3ccccc3)[C@]3(O)C[C@H](OC(=O)[C@H](O)[C@@H](NC(=O)c4ccccc4)c4ccccc4)C(C)=C1C3(C)C)[C@]1(OC(C)=O)CO[C@@H]1C[C@@H]2O [PACLITAXEL]

>  <IC50 (µM)>
0.0013

$$$$

The reported value for `Cc1c2c(c(O)c3c1[C@H](C)[C@@H](C)O3)/C(=C/c1ccccc1)C(=O)O2` in terms of IC50 is 6.2
